tested on: M18 aspartyl aminopeptidase (Plasmodium falciparum 3D7); assay: inhibition of P. falciparum M18 aminopeptidase – biochemical, QFRET, recombinant enzyme, primary screen (AID 1822); conditions: recombinant PfM18AAP, H-Glu-NHMec fluorogenic cleavage; at 7.35 µM; active compounds read high;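 note: 0% = plate median of test compound wells and 100% = 2 mM ZnCl2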
In all, about 290,000 compounds went through this assay and about 3,500 (1.2%) were called active. What follows is part of a selection rich in actives, with near analogues and random picks from the rest.
This section presents molecules with their documented inhibition values.

Molecule	Measured on	inhibition [%]
CCN(CC)c1ccc(C(=O)NNC(=O)CCc2nc3ccccc3c(=O)[nH]2)cc1	M18 aspartyl aminopeptidase (Plasmodium falciparum 3D7)	-7.26
CCOc1ccc(-n2c(O)c(/C=N/Nc3nc(C)cc(C)n3)c3ccccc3c2=O)cc1	M18 aspartyl aminopeptidase (Plasmodium falciparum 3D7)	26.7
CC(=O)N1c2ccc(S(=O)(=O)NCCC(=O)N(C)C3CCCCC3)cc2CC1C (stereo not drawn)	M18 aspartyl aminopeptidase (Plasmodium falciparum 3D7)	0.68
O=C(O)c1cccc(NC(=S)N/N=C/c2c[nH]c3ccccc23)c1	M18 aspartyl aminopeptidase (Plasmodium falciparum 3D7)	38.5
COc1cc(NC(=O)C2=CC(c3ccc(C)cc3)=NS(=O)(=O)N2C)cc(OC)c1OC	M18 aspartyl aminopeptidase (Plasmodium falciparum 3D7)	13.1
CSc1nc2ccccc2c(=O)n1Cc1ccc(F)cc1	M18 aspartyl aminopeptidase (Plasmodium falciparum 3D7)	4.37
CCOc1ccc(-n2c(O)c(/C=N/c3ccnn3Cc3ccncc3)c3ccccc3c2=O)cc1	M18 aspartyl aminopeptidase (Plasmodium falciparum 3D7)	5.65
O=C(N/N=C/c1c[nH]c2ccccc12)c1cc2ccccc2o1	M18 aspartyl aminopeptidase (Plasmodium falciparum 3D7)	-7.84
Cc1ccc(-n2[nH]c(C)c(/C=N/NC(=O)c3cccc([N+](=O)[O-])c3)c2=O)cc1C	M18 aspartyl aminopeptidase (Plasmodium falciparum 3D7)	1.83
Cc1cc(NC(=O)CSc2nnc(-c3ccc(Cl)s3)o2)no1	M18 aspartyl aminopeptidase (Plasmodium falciparum 3D7)	21.4
CC(=O)c1ccc(NC(=O)CCNS(=O)(=O)c2cc(Br)cnc2N)cc1	M18 aspartyl aminopeptidase (Plasmodium falciparum 3D7)	-3.06
O=C1CCN(CCCc2ccccc2)CCN1CCO	M18 aspartyl aminopeptidase (Plasmodium falciparum 3D7)	10.1
Cc1cc(C)nc(NS(=O)(=O)c2ccc(N3C(=O)C4CCCCC4C3=O)cc2)n1 (stereo not drawn)	M18 aspartyl aminopeptidase (Plasmodium falciparum 3D7)	-7.47
Nc1ccc2nc3c(=O)[nH]c(=S)[nH]c3nc2c1	M18 aspartyl aminopeptidase (Plasmodium falciparum 3D7)	28.9
Cc1ccc(-c2ccc(/C=C(\C#N)C(N)=S)o2)c([N+](=O)[O-])c1	M18 aspartyl aminopeptidase (Plasmodium falciparum 3D7)	34
CCOC(=O)NNc1cc(C(F)(F)F)ccn1	M18 aspartyl aminopeptidase (Plasmodium falciparum 3D7)	49.5
NC(=O)C1CCN(C(=O)/C(=C/c2ccco2)NC(=O)c2ccccc2)CC1	M18 aspartyl aminopeptidase (Plasmodium falciparum 3D7)	35.1
NC(=O)C1CCCN(CC(=O)N2CCN(c3ccccc3)CC2)C1 (stereo not drawn)	M18 aspartyl aminopeptidase (Plasmodium falciparum 3D7)	0.08
O=C(NC1CCCC1)C(c1ccc(Cl)cc1)N(C(=O)c1csnn1)C1CC1 (stereo not drawn)	M18 aspartyl aminopeptidase (Plasmodium falciparum 3D7)	-2
C=CCNC(=O)c1ccccc1SCc1c(C)noc1C	M18 aspartyl aminopeptidase (Plasmodium falciparum 3D7)	-1.38
CCCn1c2ccccc2c2cnn(CC(=O)NCCCN3CCCCC3CC)c(=O)c21 (stereo not drawn)	M18 aspartyl aminopeptidase (Plasmodium falciparum 3D7)	2.69
Cc1ccc(NC(=O)Nc2cccc(C(F)(F)F)c2)nc1	M18 aspartyl aminopeptidase (Plasmodium falciparum 3D7)	-4.58
Cc1ccc2c(c1)c1ncnc(N3CCc4ccccc4C3)c1n2C	M18 aspartyl aminopeptidase (Plasmodium falciparum 3D7)	-0.51
COc1ccc(-c2csc(NC3OC(=O)c4ccccc43)n2)cc1 (stereo not drawn)	M18 aspartyl aminopeptidase (Plasmodium falciparum 3D7)	3.33
O=C(N/N=C/c1c[nH]c2ccccc12)c1ccccc1O	M18 aspartyl aminopeptidase (Plasmodium falciparum 3D7)	9.89
COc1ccc(S(=O)(=O)N2CCC(C(=O)NCCC(=O)NCc3cccc(OC)c3)CC2)cc1	M18 aspartyl aminopeptidase (Plasmodium falciparum 3D7)	-4.58
Cc1c(/C=N\NC(=O)c2cc3ccccc3o2)c2ccccc2n1C	M18 aspartyl aminopeptidase (Plasmodium falciparum 3D7)	0.69
NC(=S)N/N=C/c1coc2cc(Cl)ccc2c1=O	M18 aspartyl aminopeptidase (Plasmodium falciparum 3D7)	50.2
Cc1ccc(OCC(=O)Nc2ccc(NC(=O)c3cccs3)cc2)c(C)c1	M18 aspartyl aminopeptidase (Plasmodium falciparum 3D7)	2.4
Cc1cc(N/N=C/c2ccccc2F)c2ccccc2n1	M18 aspartyl aminopeptidase (Plasmodium falciparum 3D7)	3.64
COc1ccc(CNC(=O)C2CCN(C(=O)c3ccco3)CC2)cc1	M18 aspartyl aminopeptidase (Plasmodium falciparum 3D7)	2.47
C/C(=N\NC(=O)c1ccccc1F)c1ccccn1	M18 aspartyl aminopeptidase (Plasmodium falciparum 3D7)	-8.33
CCc1ccc(NC(=O)N2CCc3ccccc3C2)cc1	M18 aspartyl aminopeptidase (Plasmodium falciparum 3D7)	-1.34
